Test system: Fibroblast
Test: Incucyte cell viability with human fibroblast; also: unitless GR value; below 1 slowed growth and below 0 cell loss
Assay type: toxicity, cell-based
Settings: 0 h, 10 µM, compound concentration 10 uM, replicate number 2
Catalogue of Growth Rate values
reported_metric: Growth Rate

CN[C@@H](C)C(=O)N[C@H](C(=O)N1CCC[C@H]1C(=O)Nc1snnc1-c1ccccc1)C1CCCCC1: -0.71
CCS(=O)(=O)c1ccc(OC)c(Nc2ncc(-c3cccc(F)c3)o2)c1 [GW621970X]: -0.51
S=c1[nH]nc(-c2cccs2)n1-c1ccccc1: -0.79
CCOP(=O)(OCC)C(=Cc1cc(C(C)(C)C)c(O)c(C(C)(C)C)c1)P(=O)(OCC)OCC: 0.24
CCCNc1ccc2ncc(-c3ccncc3)n2n1: 0.59
